# Test system: HCT-15
# Test protocol: In vitro antitumor activity against colon HCT-15 tumor cell lines
# Format: functional, cell-based, Homo sapiens
# Experimental setup: hct-15

Compound	IC50
CC1=C[C@H]2O[C@@H]3C[C@H]4OC(=O)/C=C\C=C\C(=O)OCC[C@@H](C)[C@H](O)C(=O)OC[C@@]2(CC1)[C@]4(C)[C@]31CO1	8.1 µM
CC1=C[C@H]2O[C@@H]3[C@H](O)[C@H]4OC(=O)/C=C\C=C\C(=O)OCC/C(C)=C/C(=O)OC[C@@]2(CC1)[C@]4(C)[C@]31CO1	0.073 µM
CC1=C[C@H]2O[C@@H]3[C@H](O)[C@H]4OC(=O)/C=C\C=C\[C@H]([C@H](C)O)OCC/C(C)=C/C(=O)OC[C@@]2(CC1)[C@]4(C)[C@]31CO1	> 10 µM
CC1=C[C@H]2OC3C[C@@H](OC(=O)/C=C\C=C\[C@H](O)[C@@H](C)O)[C@](C)([C@@]2(COC(=O)/C=C(\C)CCO)CC1)[C@]31CO1	> 10 µM
CC(=O)OC(C)[C@@H](O)/C=C/C=C\C(=O)O[C@@H]1CC2O[C@@H]3C=C(C)CC[C@]3(COC(=O)/C=C(\C)CCO)[C@]1(C)[C@]21CO1 (stereo partly drawn)	> 10 µM
CC1=C[C@H]2O[C@@H]3C[C@H]4OC(=O)/C=C\C=C\[C@H]([C@H](C)O)OCC[C@@H](C)[C@H](O)C(=O)OC[C@@]2(CC1)[C@]4(C)[C@]31CO1	> 10 µM
CC(=O)OC[C@]12CCC(C)=C[C@H]1O[C@@H]1[C@H](O)[C@@H](OC(C)=O)[C@@]2(C)[C@]12CO2	< 0.001 µM
CC1=C[C@H]2O[C@@H]3[C@H](O)[C@H]4OC(=O)/C=C\C=C\[C@H]([C@@H](C)O)OCC/C(C)=C/C(=O)OC[C@@]2(CC1)[C@]4(C)[C@]31CO1	> 10 µM

----------
# Tested on: 786-0
# Test protocol: In vitro antitumor activity against renal 786-0 tumor cell lines
# Format: functional, cell-based, Homo sapiens
Endpoint label: IC50

1. CC1=C[C@H]2O[C@@H]3[C@H](O)[C@H]4OC(=O)/C=C\C=C\[C@@H]5O[C@H](C/C(C)=C/C(=O)OC[C@@]2(CC1)[C@]4(C)[C@]31CO1)O[C@H]5C > 10 µM
2. CC1=C[C@H]2O[C@@H]3[C@H](O)[C@H]4OC(=O)/C=C\C=C\[C@H]([C@@H](C)O)OCC/C(C)=C/C(=O)OC[C@@]2(CC1)[C@]4(C)[C@]31CO1 0.059 µM
3. CC1=C[C@H]2O[C@@H]3C[C@H]4OC(=O)/C=C\C=C\[C@H]([C@H](C)O)OCC[C@@H](C)[C@H](O)C(=O)OC[C@@]2(CC1)[C@]4(C)[C@]31CO1 > 10 µM
4. CC(=O)OC[C@]12CCC(C)=C[C@H]1O[C@@H]1[C@H](O)[C@@H](OC(C)=O)[C@@]2(C)[C@]12CO2 < 0.001 µM
5. CC1=C[C@H]2OC3C[C@@H](OC(=O)/C=C\C=C\[C@H](O)[C@H](C)O)[C@](C)([C@@]2(COC(=O)/C=C(\C)CCO)CC1)[C@]31CO1 > 10 µM
